Source of measurements: BindingDB's records for doi:10.1021/np070341r

# Tgt: Dual specificity tyrosine-phosphorylation-regulated kinase 1A (Homo sapiens)
# Assay Summary: Inhibition of human recombinant DYRK1A
pIC50: −log10 of the molar value.
pIC50: recorded values

COC(=O)[C@@]1(Cc2ccc(O)c(CC=C(C)C)c2)OC(=O)C(=O)C1c1ccc(O)cc1 (some centres not stated)
< 4.00

Here is the next item to consider.
Specify measured pIC50 for COC(=O)[C@]1(Cc2ccc(OS(=O)(=O)O)c(CC=C(C)C)c2)OC(=O)C(=O)C1c1ccc(O)cc1 (some centres not stated) [butyrolactone I 4''-sulfate] . < 4.00
